Assayed target: Nsp8 NTD (SARS-CoV-2, UniProt P0DTD1)
Measurement protocol: NMR
pKd: −log10 of the molar value.
Value type: pKd

Data point: model dsRNA (dsRNA) RNA 1: GAUGCUACGCGGUAGUA RNA 2: GUACUACCGCGUAGCAUC ; pKd = ~4.85
